# Tested on: FADD−/− Jurkat cells
# assay-protocol: Necroptosis inhibition assay, TNF-α-induced necroptosis (CellTiter-Glo 2.0)
# Type: cell-based, human
# measurement-setup: compound 1 μM; TNF-α 15 ng/mL
reported-endpoint: Necroptosis inhibition assay (Rescue %) 1 μM
Value expressed in %; do not type the unit.

Here are 2 compounds together with their reported answers.
Nc1ncc(-c2cnn(C3CCN(CCOCCNC(=O)CNc4cccc5c4C(=O)N(C4CCC(=O)NC4=O)C5=O)CC3)c2)nc1C(=O)O[C@@H](C(=O)Nc1ccc(F)cc1)c1ccccc1 (some centres unmarked); 32.98
Nc1ncc(-c2cnn(C3CCN(CCOC4CCN(C(=O)CC5CCN(c6ccc7c(c6)C(=O)N(C6CCC(=O)NC6=O)C7=O)CC5)CC4)CC3)c2)nc1C(=O)O[C@@H](C(=O)Nc1ccc(F)cc1)c1ccccc1 (some centres unmarked); 26.36

Prompt line: Record lookup: for FADD−/− Jurkat cells, what Necroptosis inhibition assay (Rescue %) 1 μM belongs to Cc1ncsc1-c1ccc(CNC(=O)[C@H]2C[C@H](O)CN2C(=O)[C@@H](NC(=O)CN2CCC(CCN3CCC(n4cc(-c5cnc(N)c(C(=O)OC(C(=O)Nc6ccc(F)cc6)c6ccccc6)n5)cn4)CC3)CC2)C(C)(C)C)cc1 (some centres unmarked) ?
Response line: 75.61

Prompt line: Record lookup: for FADD−/− Jurkat cells, what Necroptosis inhibition assay (Rescue %) 1 μM belongs to Nc1ncc(-c2cnn(C3CCN(CCC4CCN(C(=O)CNc5cccc6c5C(=O)N(C5CCC(=O)NC5=O)C6=O)CC4)CC3)c2)cc1C(=O)OC(C(=O)Nc1ccc(F)cc1)c1ccccc1 (centres unmarked) ?
Response line: 10.34

Prompt line: Record lookup: for FADD−/− Jurkat cells, what Necroptosis inhibition assay (Rescue %) 1 μM belongs to Nc1ncc(-c2cnn([C@H]3CCN(CC4CCN(C(=O)CNc5cccc6c5C(=O)N(C5CCC(=O)NC5=O)C6=O)CC4)C3)c2)nc1C(=O)OC(C(=O)Nc1ccc(F)cc1)c1ccccc1 (some centres unmarked) ?
Response line: 29.65

Prompt line: Record lookup: for FADD−/− Jurkat cells, what Necroptosis inhibition assay (Rescue %) 1 μM belongs to Nc1ncc(-c2ccc(N3CCN(CCOCCOCCNC(=O)CNc4ccc5c(c4)C(=O)N(C4CCC(=O)NC4=O)C5=O)CC3)nc2)nc1C(=O)OC(C(=O)Nc1ccc(F)cc1)c1ccccc1 (centres unmarked) ?
Response line: 14.46

---

# experimental-system: MLKL (Homo sapiens)
# Sequence (Q8NB16 1-471): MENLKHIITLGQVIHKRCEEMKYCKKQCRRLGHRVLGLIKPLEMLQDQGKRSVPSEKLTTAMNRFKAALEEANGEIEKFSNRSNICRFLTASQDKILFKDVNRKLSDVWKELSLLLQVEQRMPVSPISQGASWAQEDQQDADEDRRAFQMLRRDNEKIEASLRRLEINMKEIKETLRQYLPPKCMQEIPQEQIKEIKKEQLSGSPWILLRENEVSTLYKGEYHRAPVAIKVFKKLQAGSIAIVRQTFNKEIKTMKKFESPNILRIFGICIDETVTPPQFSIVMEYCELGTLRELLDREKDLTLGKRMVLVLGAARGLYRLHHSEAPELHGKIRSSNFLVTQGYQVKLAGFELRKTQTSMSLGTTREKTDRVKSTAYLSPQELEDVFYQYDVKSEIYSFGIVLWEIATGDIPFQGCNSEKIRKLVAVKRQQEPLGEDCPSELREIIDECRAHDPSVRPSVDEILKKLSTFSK
# assay-protocol: MLKL degradation assay in HepG2 cell line (western blot)
# Type: cell-based
# Design: endogenous in cells; host or cells: HepG2 or HaCaT
# measurement-setup: compound 1 μM; cell line not given
# Experimental: MLKL degradation ability was evaluated in the following method. […] For protein preparation after incubation, cells were washed with 1×TBST, and 60 μL of RIPA lysis buffer containing Halt™ Protease and Phosphatase Inhibitor Cocktail was dispensed into each well. […] For protein quantification, after dispensing sample and BCA (0-4 mg/ml) in a 96 well plate, 100 μL of BCA was dispensed and reacted in a 37° C. incubator for 30 minutes. […]
reported-endpoint: Degradation assay (Degradation %) 1 μM
Value expressed in %; do not type the unit.

Nc1ncc(-c2cnn(C3CCN(CCOCCNC(=O)C4CN(c5cccc6c5C(=O)N(C5CCC(=O)NC5=O)C6=O)C4)CC3)c2)nc1C(=O)O[C@@H](C(=O)Nc1ccc(F)cc1)c1ccccc1 (stereo partly shown); 31.29
Nc1ncc(-c2cnn(C3CCN(CC4CCN(C(=O)C5CN(c6ccc7nnn(C8CCC(=O)NC8=O)c(=O)c7c6)C5)CC4)CC3)c2)nc1C(=O)O[C@@H](C(=O)Nc1ccc(F)cc1)c1ccccc1 (stereo partly shown); 60.57
Nc1ncc(-c2cnn(C3CCN(CCOCCOCCOCCNC(=O)CNc4ccc5nnn(C6CCC(=O)NC6=O)c(=O)c5c4)CC3)c2)nc1C(=O)O[C@@H](C(=O)Nc1ccc(F)cc1)c1ccccc1 (stereo partly shown); 48.93
Nc1ncc(-c2cnn(C3CCN(C(=O)CCC4CCN(C(=O)CNc5cccc6nnn(C7CCC(=O)NC7=O)c(=O)c56)CC4)CC3)c2)nc1C(=O)O[C@@H](C(=O)Nc1ccc(F)cc1)c1ccccc1 (stereo partly shown); 74.16
Nc1ncc(-c2cnn(C3CCN(C4CC5(CCN(CC6CCN(c7ccc8c(c7)C(=O)N(C7CCC(=O)NC7=O)C8=O)CC6)CC5)C4)CC3)c2)nc1C(=O)O[C@@H](C(=O)Nc1ccc(F)cc1)c1ccccc1 (stereo partly shown); 50.63
Nc1ncc(-c2cnn(C3CCN(CC4CCN(CC5CCN(C(=O)C6CCN(C7=CC(=O)N(C8CCC(=O)NC8=O)C7=O)CC6)CC5)CC4)CC3)c2)nc1C(=O)O[C@@H](C(=O)Nc1ccc(F)cc1)c1ccccc1 (stereo partly shown); 71.10

Prompt line: I am curious: what Degradation assay (Degradation %) 1 μM value has been reported for Nc1ncc(-c2cnn([C@H]3CCN(CC4CCN(C(=O)COc5ccc6c(c5)C(=O)N(C5CCC(=O)NC5=O)C6=O)CC4)C3)c2)nc1C(=O)OC(C(=O)Nc1ccc(F)cc1)c1ccccc1 (stereo partly shown) ?
Response line: 42.05

Prompt line: I am curious: what Degradation assay (Degradation %) 1 μM value has been reported for Nc1ncc(-c2cnn(C3CCN(C(=O)C4CCN(C(=O)CNc5cccc6nnn(C7CCC(=O)NC7=O)c(=O)c56)CC4)CC3)c2)nc1C(=O)O[C@@H](C(=O)Nc1ccc(F)cc1)c1ccccc1 (stereo partly shown) ?
Response line: 71.41

Prompt line: I am curious: what Degradation assay (Degradation %) 1 μM value has been reported for COc1ccc(C(=O)N2CCC(C(=O)N3CCC(CN4CCC(n5cc(-c6cnc(N)c(C(=O)O[C@@H](C(=O)Nc7ccc(F)cc7)c7ccccc7)n6)cn5)CC4)CC3)CC2)cc1N1CCC(=O)NC1=O ?
Response line: 95.21

Prompt line: I am curious: what Degradation assay (Degradation %) 1 μM value has been reported for Nc1ncc(-c2cnn(C3CCN(CCOC4CCN(C(=O)c5ccc(C(=O)NC6CCC(=O)NC6=O)cc5)CC4)CC3)c2)nc1C(=O)O[C@@H](C(=O)Nc1ccc(F)cc1)c1ccccc1 (stereo partly shown) ?
Response line: 66.34

Prompt line: I am curious: what Degradation assay (Degradation %) 1 μM value has been reported for Nc1ncc(-c2cnn(C3CCN(CC4CCN(C(=O)COc5cccc6c5C(=O)N(C5CCC(=O)NC5=O)C6=O)CC4)CC3)c2)nc1C(=O)O[C@@H](C(=O)Nc1ccc(F)cc1)c1ccccc1 (stereo partly shown) ?
Response line: 46.29
